β-arrestin2 Emax (% U60) values, listed per item
system-tested: UniProtKB P41145
Sequence (P41145 whole entry, the tested form may be a part): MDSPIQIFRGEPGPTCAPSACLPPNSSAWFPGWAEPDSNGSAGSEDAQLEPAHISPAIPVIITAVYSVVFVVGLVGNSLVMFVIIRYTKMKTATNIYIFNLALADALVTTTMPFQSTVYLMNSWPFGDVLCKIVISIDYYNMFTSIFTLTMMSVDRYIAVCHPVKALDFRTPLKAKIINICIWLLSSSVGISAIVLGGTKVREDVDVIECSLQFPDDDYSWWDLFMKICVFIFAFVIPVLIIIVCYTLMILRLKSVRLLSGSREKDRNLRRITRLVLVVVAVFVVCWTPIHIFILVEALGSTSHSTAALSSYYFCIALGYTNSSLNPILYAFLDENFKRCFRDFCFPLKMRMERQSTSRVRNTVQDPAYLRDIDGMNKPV
Sequence (P32121 whole entry partner, the tested form may be a part): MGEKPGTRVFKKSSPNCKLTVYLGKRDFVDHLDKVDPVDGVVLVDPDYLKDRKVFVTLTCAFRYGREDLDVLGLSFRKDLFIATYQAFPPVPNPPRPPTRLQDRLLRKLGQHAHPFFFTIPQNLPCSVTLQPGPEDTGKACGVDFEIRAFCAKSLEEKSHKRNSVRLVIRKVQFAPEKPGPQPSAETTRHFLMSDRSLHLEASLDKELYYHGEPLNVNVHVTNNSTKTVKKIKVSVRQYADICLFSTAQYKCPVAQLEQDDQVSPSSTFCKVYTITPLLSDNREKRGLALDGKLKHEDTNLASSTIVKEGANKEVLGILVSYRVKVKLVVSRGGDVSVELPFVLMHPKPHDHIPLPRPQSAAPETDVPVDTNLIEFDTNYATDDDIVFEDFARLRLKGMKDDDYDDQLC
method-summary: PathHunter DiscoverX β-arrestin2 recruitment (enzyme fragment complementation) assay
Assay type: cell-based
study-conditions: relative to U69,593 = 100% Emax; ~ did not plateau at 100%
Number only, in % U60; omit the unit.

Previously resolved entries follow.
compound: Cc1ccc(CCc2nnc(-c3nccn3C)n2Cc2cccs2)cc1C(F)(F)F
quantity-measured: β-arrestin2 Emax (% U60)
unit-name: % U60
numeric-value: 98
//
compound: Brc1cccc(CCc2nnc(-c3ccccn3)n2Cc2cccs2)c1
quantity-measured: β-arrestin2 Emax (% U60)
unit-name: % U60
numeric-value: 114
//
compound: Cc1ccc(CCc2nnc(-c3ccccn3)n2Cc2cccs2)cc1C(F)(F)F
quantity-measured: β-arrestin2 Emax (% U60)
unit-name: % U60
numeric-value: 110
//
compound: c1ccc(-c2nnc(CCc3cccc4ccccc34)n2Cc2cccs2)nc1
quantity-measured: β-arrestin2 Emax (% U60)
unit-name: % U60
numeric-value: 67

Req: I am curious: what β-arrestin2 Emax (% U60) value has been reported for `Clc1ccc(CCc2nnc(-c3ccccn3)n2Cc2ccco2)cc1` ?
Resp: 191

Req: I am curious: what β-arrestin2 Emax (% U60) value has been reported for `Cc1ccc(CCc2nnc(-c3ncccc3C)n2Cc2cccs2)cc1C(F)(F)F` ?
Resp: 117

Req: I am curious: what β-arrestin2 Emax (% U60) value has been reported for `Cc1ccc(CCc2nnc(-c3ccccn3)n2Cc2cccnc2)cc1C(F)(F)F` ?
Resp: 105

Req: I am curious: what β-arrestin2 Emax (% U60) value has been reported for `COc1ccc(CCc2nnc(-c3ccccn3)n2Cc2cccs2)cc1` ?
Resp: 124

Req: I am curious: what β-arrestin2 Emax (% U60) value has been reported for `FC(F)(F)c1ccccc1CCc1nnc(-c2ccccn2)n1Cc1cccs1` ?
Resp: 44

Req: I am curious: what β-arrestin2 Emax (% U60) value has been reported for Cc1ccc(/C=C/c2nnc(-c3ccccn3)n2Cc2ccco2)cc1C(F)(F)F (single isomer, unassigned) [Compound 40] ?
Resp: 54

Req: I am curious: what β-arrestin2 Emax (% U60) value has been reported for `Fc1ccc(CCc2nnc(-c3ccccn3)n2Cc2cccs2)cc1` ?
Resp: 75

Req: I am curious: what β-arrestin2 Emax (% U60) value has been reported for `Cc1ccc(CCc2nnc(-c3ccccn3)n2Cc2ccccc2)cc1C(F)(F)F` ?
Resp: 180
